assay: Free fraction in plasma (plasma protein binding); assay type: in vitro ADME
Property: fraction unbound

Consider CC(C)C[C@H](C(=O)O)c1cc(-c2ccc(C(F)(F)F)cc2)cc(-c2ccc(C(F)(F)F)cc2)c1 [Compound 4] . Its measured fraction unbound is < 0.001
